- system.tested: human α-galactosidase A (Homo sapiens)
- Sequence (P06280 32-429): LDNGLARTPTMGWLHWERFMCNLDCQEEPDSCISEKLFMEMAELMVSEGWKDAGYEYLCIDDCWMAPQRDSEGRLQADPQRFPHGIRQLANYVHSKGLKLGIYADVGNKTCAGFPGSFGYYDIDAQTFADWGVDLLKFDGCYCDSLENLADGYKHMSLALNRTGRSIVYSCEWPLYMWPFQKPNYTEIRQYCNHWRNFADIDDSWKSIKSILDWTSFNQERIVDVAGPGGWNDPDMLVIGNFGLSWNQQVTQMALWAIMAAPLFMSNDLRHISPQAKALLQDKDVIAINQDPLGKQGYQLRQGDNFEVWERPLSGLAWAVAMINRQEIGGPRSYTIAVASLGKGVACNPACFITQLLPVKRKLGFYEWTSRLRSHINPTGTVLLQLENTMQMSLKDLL
pIC50: −log10 of the molar value.
Assignment: determine reported pIC50 for the given compounds.

// solved cases for pIC50 follow
{"given.smiles": "CN1C[C@H](O)[C@@H](O)[C@@H](O)[C@H]1CO", "system.tested": "human α-galactosidase A (Homo sapiens)", "pIC50": 5.29}
{"given.smiles": "OC[C@H]1NNC[C@@H](O)[C@H]1O", "system.tested": "human α-galactosidase A (Homo sapiens)", "pIC50": "< 4.00"}
{"given.smiles": "CCCCCCCCCN1C[C@H](O)[C@@H](O)[C@@H](O)[C@H]1CO", "system.tested": "human α-galactosidase A (Homo sapiens)", "pIC50": "< 4.00"}
{"given.smiles": "CN1NC[C@@H](O)[C@@H](O)[C@H]1CO", "system.tested": "human α-galactosidase A (Homo sapiens)", "pIC50": "< 4.00"}

Exam item: // lookup pIC50 for `CCCCCCCCCN1CC[C@@H](O)[C@@H](O)[C@H]1CO`
Marked response: < 4.00

---

- system.tested: UniProtKB P53341
- Sequence (P53341 whole entry): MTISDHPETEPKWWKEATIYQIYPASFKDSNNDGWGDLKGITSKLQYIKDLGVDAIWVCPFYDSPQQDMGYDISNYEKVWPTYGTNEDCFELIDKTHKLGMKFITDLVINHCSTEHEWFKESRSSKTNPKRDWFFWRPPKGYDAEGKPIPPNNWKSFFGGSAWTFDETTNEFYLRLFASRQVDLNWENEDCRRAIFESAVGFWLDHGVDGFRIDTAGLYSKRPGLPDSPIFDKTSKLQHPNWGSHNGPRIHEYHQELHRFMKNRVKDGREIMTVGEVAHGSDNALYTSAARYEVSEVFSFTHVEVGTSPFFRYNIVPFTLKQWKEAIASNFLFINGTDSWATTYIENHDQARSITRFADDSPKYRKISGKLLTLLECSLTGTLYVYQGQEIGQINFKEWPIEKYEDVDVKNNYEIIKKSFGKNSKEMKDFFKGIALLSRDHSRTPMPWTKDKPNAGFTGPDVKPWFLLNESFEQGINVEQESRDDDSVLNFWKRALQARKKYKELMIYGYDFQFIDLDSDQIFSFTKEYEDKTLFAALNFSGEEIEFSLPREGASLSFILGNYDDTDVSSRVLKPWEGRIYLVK
Assignment: determine reported pIC50 for the given molecules.
Answers are plain numbers, as −log10 of the molar value.

{"molecule": "OC[C@@H]1[C@@H](O)[C@H](O)[C@@H](O)CN1CCCCCC12CC(C1)C2 [Compound 22]", "pIC50": 3.66}
{"molecule": "OC[C@@H]1[C@@H](O)[C@H](O)[C@@H](O)CN1CCCCCOCC12CC3CC(CC(C3)C1)C2 [Compound 77]", "pIC50": 4.17}

Please supply pIC50 for each of the following items, keeping them in order.
1. CCCCCCCCCN1C[C@H](O)[C@@H](O)[C@H](O)[C@H]1CO [Compound 76]
2. CN1C[C@H](O)[C@@H](O)[C@H](O)[C@H]1CO [Compound 75]

Marked response:
4.15
3.24
